B1: HDV Ribozyme (parent)
chain: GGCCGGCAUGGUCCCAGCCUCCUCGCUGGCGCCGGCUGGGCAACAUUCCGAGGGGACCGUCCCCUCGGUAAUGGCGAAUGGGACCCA

variants of: B1; assay: self-cleavage, relative activity (ratio to wild type); higher = more cleavage; co-transcriptional
Cut-off 0.2 on self-cleavage, inclusive. At or above means criterion met; below means criterion not met.

sequenceVariant | label
U9A U47C | criterion met
U12A G35A | criterion not met
C21U A78G | criterion not met
U20A G34U | criterion not met
A45C G52A | criterion met

Here's the next entry for you.
Given G2U U65A , state whether its self-cleavage is at least 0.2.
criterion not met
